# credit: patent US20240327334A1

Molecular target: SARS-CoV-2 Papain-like (PLpro) protease (Severe acute respiratory syndrome coronavirus 2, UniProt P0DTD1)
Assay: SARS-CoV-2 Papain-like (PLpro) protease biochemical enzyme inhibition assay (ubiquitin-fluorophore substrate, Ub-R110)
Settings: Ub-R110 substrate; run in duplicate; read-out: PLpro IC50
pIC50: −log10 of the molar value.
Assay readout: pIC50

Would you please look over these solved cases?
N#Cc1cc(F)c(C#CCNC(=O)C(=O)NCc2ccccc2C(=O)NC2(c3ccc4ccccc4c3)CC2)c(F)c1    > 7.00
O=C(NCC#Cc1nccs1)C(=O)NCc1ccccc1C(=O)NC1(c2cc(Cl)cc(-c3cncs3)c2)CC1    > 7.00
CC(C)c1cccnc1C#CCNC(=O)C(=O)NCc1ccccc1C(=O)NC1(c2ccc3ccccc3c2)CC1    > 7.00
COCC1CCCN1c1cc(C2(NC(=O)c3ccccc3CNC(=O)C(=O)NCC#N)CC2)c2ccccc2c1 (stereo not shown)    > 7.00

INPUT: What pIC50 value was documented for this compound, O=C(NCC#Cc1nccs1)C(=O)NCc1ccccc1C(=O)NC1(c2cc(Cl)cc(-c3nccs3)c2)CC1 ?
OUTPUT: > 7.00

INPUT: What pIC50 value was documented for this compound, Cc1nn(C)cc1-c1cc(F)cc(C2(NC(=O)c3ccccc3CNC(=O)C(=O)NCC#Cc3ncccc3Cl)CC2)c1 ?
OUTPUT: > 7.00

INPUT: What pIC50 value was documented for this compound, O=C(/C=C/CNC(=O)C(=O)NCc1ccccc1C(=O)NC1(c2cccc3ccccc23)CC1)Nc1ccccn1 ?
OUTPUT: 6.00 to 7.00

INPUT: What pIC50 value was documented for this compound, COc1cc(-c2cnn(C3CC3)c2)cc(C2(NC(=O)c3ccccc3CNC(=O)C(=O)NCC#Cc3nccs3)CC2)c1 ?
OUTPUT: > 7.00

INPUT: What pIC50 value was documented for this compound, N#Cc1cccc(NC(=O)/C=C/CNC(=O)C(=O)NCc2ccccc2C(=O)NC2(c3cccc4ccccc34)CC2)c1 ?
OUTPUT: 6.00 to 7.00

INPUT: What pIC50 value was documented for this compound, Cc1nn(C)c(C)c1-c1cc(C2(NC(=O)c3ccccc3CNC(=O)C(=O)NCC#Cc3nccs3)CC2)cc2ccccc12 ?
OUTPUT: > 7.00

INPUT: What pIC50 value was documented for this compound, O=C(NCC#Cc1ccc(C(F)(F)F)s1)C(=O)NCc1ccccc1C(=O)NC1(c2ccc3ccccc3c2)CC1 ?
OUTPUT: < 5.00

INPUT: What pIC50 value was documented for this compound, O=C(NCC#Cc1ncc(F)s1)C(=O)NCc1ccccc1C(=O)NC1(c2cc(F)cc(-c3cnn(C4CC4)c3)c2)CC1 ?
OUTPUT: > 7.00

INPUT: What pIC50 value was documented for this compound, C[C@@H](C#Cc1nccs1)NC(=O)C(=O)NCc1ccccc1C(=O)NC1(c2ccc3nn(CC(F)(F)F)cc3c2)CC1 ?
OUTPUT: > 7.00

INPUT: What pIC50 value was documented for this compound, N#CCNC(=O)C(=O)NCc1ccccc1C(=O)NC1(c2cc(-c3cn(C4CC4)nn3)cc(C(F)(F)F)c2)CC1 ?
OUTPUT: 6.00 to 7.00

INPUT: What pIC50 value was documented for this compound, O=C(NCC#Cc1nc2ccccc2s1)C(=O)NCc1ccccc1C(=O)NC1(c2ccc3ccccc3c2)CC1 ?
OUTPUT: 6.00 to 7.00

INPUT: What pIC50 value was documented for this compound, O=C(NCC#Cc1ccc(F)cn1)C(=O)NCc1ccccc1C(=O)NC1(c2cc(-c3cnn(C4CC4)c3)cc(C3CC3)c2)CC1 ?
OUTPUT: > 7.00
